molecular target: KRAS G12V (Homo sapiens, UniProt P01116, G12V); construct: SW620-KRAS (G12V)-HiBit-KI cell (Pharmaron); host or cells: SW620-KRAS (G12V)-HiBit-KI cells (HiBiT knock-in at the endogenous KRAS locus); test: KRAS G12V HiBit assay; assay type: cell-based; conditions: SW620-KRAS (G12V)-HiBit-KI cells, compound treatment for 24 hours, class symbols
Sequence (P01116 1-188 isoform P01116-2 G12V): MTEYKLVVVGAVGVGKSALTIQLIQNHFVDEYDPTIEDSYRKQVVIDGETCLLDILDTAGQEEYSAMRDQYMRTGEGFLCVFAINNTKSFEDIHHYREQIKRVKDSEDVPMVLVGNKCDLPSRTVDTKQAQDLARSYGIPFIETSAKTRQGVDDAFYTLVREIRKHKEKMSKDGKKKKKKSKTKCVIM
DC50 listing for selected molecules.
READOUT_KIND: DC50

• CCc1c(F)ccc2cc(O)cc(-c3ncc4c(N5CCC[C@@](C)(O)C5)nc(OC[C@@]56CCCN5[C@H](COC(=O)N5CCC(C7(N8CCC(c9ccc%10c(c9)n(C)c(=O)n%10C9CCC(=O)NC9=O)CC8)CC7)CC5)CC6)nc4c3F)c12 (some centres unmarked) = < 10 nM
• CCc1c(F)ccc2cc(O)cc(-c3ncc4c(N5CCCC(F)(F)C5)nc(OC[C@@]56CCCN5[C@H](COC(=O)N5CCC(CN7CCC(c8ccc9c(c8)n(C)c(=O)n9C8CCC(=O)NC8=O)CC7)CC5)CC6)nc4c3F)c12 (some centres unmarked) = < 10 nM
• C#Cc1c(F)ccc2cccc(-c3ncc4c(N5CCC[C@@](C)(O)C5)nc(OC[C@@]56CCCN5[C@H](COC(=O)N5CCC(N7CCC(c8cccc9c8n(C)c(=O)n9C8CCC(=O)NC8=O)CC7)CC5)CC6)nc4c3F)c12 (some centres unmarked) = > 100 nM
• CCc1c(F)ccc2cc(O)cc(-c3ccc4c(N5CCC[C@@](C)(O)C5)nc(OC[C@@]56CCCN5[C@H](COC(=O)N5CCC(CN7CCC(c8cc9c(cc8F)n(C8CCC(=O)NC8=O)c(=O)n9C)CC7)CC5)CC6)nc4c3F)c12 (some centres unmarked) = < 10 nM
• C#Cc1c(F)ccc2cccc(-c3ncc4c(N5CCC[C@@](C)(O)C5)nc(OC[C@@]56CCCN5[C@H](COC(=O)N5CCC(COC7CN(c8ccc9c(c8)n(C)c(=O)n9C8CCC(=O)NC8=O)C7)CC5)CC6)nc4c3F)c12 (some centres unmarked) = > 100 nM
• CCc1c(F)ccc2cc(O)cc(-c3ncc4c(N5CCC[C@@](C)(O)C5)nc(OC[C@@]56CCCN5[C@@H](COC(=O)N5CCC(Oc7cccc8c7n(C)c(=O)n8C7CCC(=O)NC7=O)CC5)CC6)nc4c3F)c12 (some centres unmarked) = > 100 nM
• C[C@H]1CN(CCOCCOCCOCCOc2ccc3c(c2)n(C)c(=O)n3C2CCC(=O)NC2=O)CCCN1c1nccc(-c2noc([C@@]3(C)CCCc4sc(N)c(C#N)c43)n2)n1 (some centres unmarked) = > 100 nM
• CCc1c(F)ccc2cc(O)cc(-c3ncc4c(N5CCC[C@@](C)(O)C5)nc(OCC56CCCN5C(COCCCN5CCC(c7ccc8c(c7)n(C)c(=O)n8C7CCC(=O)NC7=O)CC5)CC6)nc4c3F)c12 (some centres unmarked) = 10 to 100 nM
• CCc1c(F)ccc2cc(O)cc(-c3ncc4c(N5CCC[C@@](C)(O)C5)nc(OC[C@@]56CCCN5[C@H](COC(=O)N5CCC(C#Cc7ccc8c(c7)n(C)c(=O)n8C7CCC(=O)NC7=O)CC5)CC6)nc4c3F)c12 (some centres unmarked) = < 10 nM
• CCc1c(F)ccc2cc(O)cc(-c3ncc4c(N5CCC[C@@](C)(O)C5)nc(OC[C@@]56CCCN5[C@H](CN5CCC7(CC5)CC(N5CCC(c8ccc9c(c8)n(C)c(=O)n9C8CCC(=O)NC8=O)CC5)C7)CC6)nc4c3F)c12 (some centres unmarked) = > 100 nM
• CCc1c(F)ccc2cc(O)cc(-c3ncc4c(N5CCC[C@@](C)(O)C5)nc(OCC56CCCN5[C@@H](COC(=O)N5CCC(CN7CCC(c8ccc9c(c8)n(C)c(=O)n9C8CCC(=O)NC8=O)CC7)CC5)CC6)nc4c3F)c12 (some centres unmarked) = < 10 nM
• CCc1c(F)ccc2cc(O)cc(-c3ncc4c(N5CCC[C@H]5CO)nc(OC[C@@]56CCCN5[C@H](COC(=O)N5CCC7(CC5)CC(N5CCC(c8ccc9c(c8)n(C)c(=O)n9C8CCC(=O)NC8=O)CC5)C7)CC6)nc4c3F)c12 (some centres unmarked) = < 10 nM
• C#Cc1c(F)ccc2cc(O)cc(-c3ccc4c(N5CCC[C@@](C)(O)C5)nc(OCC5(CN6CCN(CC7CCN(c8ccc9c(c8)n(C)c(=O)n9C8CCC(=O)NC8=O)CC7)CC6)CC5)nc4c3F)c12 (some centres unmarked) = < 10 nM
• C#Cc1c(F)ccc2cc(O)cc(-c3ncc4c(N5CCC[C@@](C)(O)C5)nc(OCC5(CN6CCC7(CC6)CCN(c6ccc8c(c6)n(C)c(=O)n8C6CCC(=O)NC6=O)CC7)CC5)nc4c3F)c12 (some centres unmarked) = < 10 nM
• C#Cc1cc(F)cc2cc(O)cc(-c3ncc4c(N5CCC[C@@](C)(O)C5)nc(OC[C@@]56CCCN5[C@H](COC(=O)N5CCC(CN7CCC(c8ccc9c(c8)n(C)c(=O)n9C8CCC(=O)NC8=O)CC7)CC5)CC6)nc4c3F)c12 (some centres unmarked) = 10 to 100 nM
• CCc1c(F)ccc2cc(O)cc(-c3ccc4c(N5CCC[C@@](C)(O)C5)nc(OC[C@@]56CCCN5[C@H](COC(=O)N5CCC(CN7CCC(c8ccc9c(c8)n(C)c(=O)n9C8CCC(=O)NC8=O)CC7)CC5)CC6)nc4c3F)c12 (some centres unmarked) = < 10 nM
• C#Cc1c(F)ccc2cccc(-c3ncc4c(N5CCC[C@@](C)(O)C5)nc(OC[C@@]56CCCN5[C@H](COC(=O)NCCOc5ccc7c(c5)n(C)c(=O)n7C5CCC(=O)NC5=O)CC6)nc4c3F)c12 (some centres unmarked) = > 100 nM
